# assay.procedure: protease stability score; higher = more stable; yeast display proteolysis, trypsin and chymotrypsin

| residue.codes | protease stability score |
| --- | --- |
| TEEVHRYKNMLELFDHAVRTGNEDLLKILFDPNTRIEVGEYHNHGWEAIEFFLKRVDHEHIEDSKLTSHHVQGNYLESHGHMHATLHFNGKELRIHTHVRWHLDKFNGRWVIHSIIIN | 1.33 |
| SELEKDQEDFVRIVEEMMNTGDEHVFKNLADPHVRNDVNGKDVHGRELVTKIWHFLLRHLGINHIELKHVEIYGNKVIIHMEERVGDKRVELVIVAEKVNGKWYLSEIRFEHK | 1.28 |
| DDDEHEAKEAIHLWLELFMTGDEESHNRYMDPHVKTKFHFENHHEEYHGREKAIELMRMLGIKHVELRDVSTRVINGRVHIDMEIIVHFDGQEVRVIVLVIVIKINGQWILHEVVIIIK | 0.933 |

----------
Reported protease stability score values follow for various sequences
# assay.procedure: protease stability score; higher = more stable; yeast display proteolysis, trypsin and chymotrypsin
measured.property: protease stability score

| residue.codes | result |
| --- | --- |
| SEQEERETRFMEKAWDLLRTGDEHLLERLADPNARLEIDGRKKHGRETIIEYFRHVKEHLGFKHIELHHMHLVDGVLHIDGIFRYGDKTHRTEIVYYVVNGRLERIEIIIL | 1.22 |
| SEEEDLVQKAFEIFVHDIRTGDEDSLIENADPNVRLLINGVIFHGREEFKFIMRHWRIRRIELHDYRIQGDKAHVESRMDIEFNGRIRITHVELVILKVNGQWLIHTIKVI | 0.454 |
| DEEEKIAEEMFRRWVELRETGNEDDRRRLADPHTRMVINGVEYHGRDQFTKFLEHVRREWRYEDNKERDVKFQGDKIEINGREVSHFDGKTVTTDVRIEIVVVNGRLKRFNIHVH | 1.38 |
| DELTEILKHAVERLLRHIVTGDEDSVSELADPNVKVDFNGQEYHGMHFFSHLASRFKGLRLELTELHSVGNYMDTRMHVEVNGKNIELILHSKKVNGKWSLERSEFH | 1.26 |
| SEDEESSKFALELMWHWEKTGDEKAISELADPHTLNHVNGVDLHGRELVIHFIHHMRIKRVHLKRIEIRMIGDYLDIRIHGRVDGEINGKDRDFHTDLVLIMRKVDGRWFVKSMSVIII | 1.45 |
| DEEEKLWHEVARLEFELIHTGNEETWNKLADPHTRTDINGKKLHGREDFAKWSLEFLRKVKGMTMELRSTHIQGNKIRLIIRLIVDGREVKLDLEIVIINGKLREVKMEVEDT | 2.56 |
| HEREEWSENAFRMILRSLMTGDERTLYELADPNVRLDVNGQDYHGREDFLHFYTHFLFRADHVELILRRERPVGDKLELDGELVSRVGDKTHHVEVRIVLWKVNGRWLIHSVYII | 1.81 |
| DEETREAKEAFDIIIKHIETGDEDLLSEMLDPNVRINQGEFRIHGREAVEEWLNYMLHHMRVHVRSEEVRVVGDKVESDFRVQINQGDKIYHHDTRLFLFKIDGRWFIESMEFH | 1.36 |
| QDIDHQLERAVKEILETFITGDESLASHLFDPDVRVIQGDKHIHGREEVTKVFYEFVKRADHVEIRMREVESQGDIIDIETELILRIGDKEVRHRVRLIVVKYNGKWHIKSMEVD | 2.72 |
| DEEHEHQHEFAQIIMEMWKTGDWKTMFKLADPNARTIFEGRRLHGRELIWEFLFRLLKKLGVDHEKDRHSHNIGDKIHIHGEEEIGDKKVEVHIHIVIFNGRVKELEIRRREL | 0.511 |
| DEDEKYEEHYVEMFLRWLQTGDEDQIERNADPNVRLDVNGRDIIGWENIIEHIRQIKNLRIQIRRVRVVDGRSIVDIRVEVNGKRHEVNLIVIIINGKLKEVKFEFR | 2.71 |

----------
# assay.procedure: protease stability score; higher = more stable; yeast display proteolysis, trypsin and chymotrypsin;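 also: relative to predicted unfolded state with 0 unfolded-like and 1 meaning tenfold more protease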
measured.property: protease stability score

| residue.codes | result |
| --- | --- |
| DEEKHILDRYWEEWLHALITGDEERLMELIDPNAKHVFNGKELHGRESLTELLRRLGMEIKDIRDHDLKVIGDKLHIDTRIDGIINGRQTTIRMHIIATKIDGKWVHTKLEVR | 1.23 |
| SEEEELTEMVARVIVHSLLTGDEENLDHMLDPNVKIDNDIDGKEERLHGREDRRRVNEEWGWSNIHWIVRRIRTQGNKATVDGEIRFDGVTEHVRLIVILFNGKVHLVRLKHL | 0.77 |
| DEEDKEAHEMVNDALQDFLTGDEDSLRNLVDPNARFEAENHHLIGMETVEWHIREFKNVTIEVKRVDVEVQGDKAILRMNIDIRVNGKTIDEHWEVHVRKFNGQWIITIVKVEFR | 2.17 |

----------
# assay.procedure: protease stability score; higher = more stable; yeast display proteolysis, trypsin and chymotrypsin;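 also: relative to predicted unfolded state with 0 unfolded-like and 1 meaning tenfold more protease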

| residue.codes | protease stability score |
| --- | --- |
| SEEEEHSKFLAEILLELMRTGDWRTFEELVDPNARLEIIQGDFTIDIHGREEVSKFLKNEVEQFKNMRVELHRQSAQGNKLHIDGRLKVGDKSHELRIHINVINGKLKQVKIEID | 1.72 |
| SEEESKERHNEKFLKTVHKTGDEHSWRKMLDPDVRVEYGDKHDHGWEAIERFRKELGIERIHIDDRKIRHNEVVNGQVYLHEELVGTVNGVHVQVKMLIIFHKVDGKWHVELVQIN | 0.559 |
| DETKEYAKEMFEILKESLETGDWKKIRHLADPNVRLHIGEFEHHGWKEFIHFFREFLHHLRLEDVETKHIEVQGDKMILRTTLHLRQGDKSRDLDVIIIYRKIDGRWMLHSVEIR | 1.4 |
| SESEEIAHNFTELLIKTLNTGDEKLYRELADPNARIEINGVELVGWKKANELLQRIDHERVRRVKLKDIEVQGDKVIVRTHEEREINIGDKRLHIRTDVEIIWVKINGKWILHEISVH | 1.23 |
| DEHREIARRHTEVWWKLLLTGDEHLLRELADPHVRLETEHEEVHGREEVVRFLTEEIMKVKNIRLELKRIEVQGDKIDVEGTRHIDGVTIRVILYIHKINGRWVVQQIQLD | 1.29 |
| DEDEKYVREVFRRFVEAVITGNEEELLELIDPHVRVLINGVDNMGREKWSEWMKRYGFRVHHVRIDDEDLINGVARLDTTEDVEYDGRRDTRHSHIIINKVDGRWHIERLEFR | 1.01 |

----------
# assay.procedure: protease stability score; higher = more stable; yeast display proteolysis, trypsin and chymotrypsin;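 also: relative to predicted unfolded state with 0 unfolded-like and 1 meaning tenfold more protease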
measured.property: protease stability score

| residue.codes | result |
| --- | --- |
| SEIEELMKISLREFLHSSETGDEEHHNRYADPNVRLEIGDKTLIGWEALEHLLEHWKREAGIEKIELHIHVTRIHVQGEKLEFDGHLEVRQGDKVNHVKVTLVITKIDGKWVLHSVVFI | 0.367 |
| EEIHKHLKELFVRWMKELVTGNEDSFKDLFDPHTRIHMHIGDKEIHAHGRKHLEDMILRFKGLRVEFRVEDSTAIGDKAHADFHLIIHVDGKNITTREEVRISVIDGKIREVHHHIN | 1.36 |
| DEDKTNLDMALRLLKEVTETGDEETLLKMMDPNVRIIINGRDVHGRENAERFATEWSRKVKNATLEVKDFHSQGEKVHLLGHDIFNGREIEFRIIWVKYNGRWFIHEIIFI | 1.3 |

----------
Reported protease stability score values follow for various sequences
# assay.procedure: protease stability score; higher = more stable; yeast display proteolysis, trypsin and chymotrypsin;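 also: relative to predicted unfolded state with 0 unfolded-like and 1 meaning tenfold more protease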
measured.property: protease stability score

| residue.codes | result |
| --- | --- |
| DEREKFLEEMVEEWFRNWVTGDEDRFEELADPDVRFHIGDKDSHGREAFEELMKRMGFKYKHIELHDVHIQGDKSHIDGHVQGQVNGQERDSHVHLDLVVVNGRLRTMEVRFR | 1.44 |
| TDEDRELHEAAELLIESTWTGDFDFLLELLDPNVRLVINGKHDHGREDIWEVLRRLLERLGLDRVRVKIKHIDSFDGRLHLNINLNFNGRQFRYHYESYKVNGQWVVRRIEVREK | 1.89 |
| HELKEELDEKLEFILRVFRTGNEERWRRLFDPEVRIEVGDKEIHGMDEALHFASHMRVEFKEMNFEDIRIVGEWVTLHIRVRGTIVYNGKKVERSMHIIIIILKIDGKWHIHEFRIH | 1.44 |
| SETDEDFKRLVEEFIRLFLTGDEDQLLELHDPNTRVEVGDFEEHGMEKWSRFLEEERRRVKGLKLVREDEKIEVQGNKLHLILHGAIEFDGVRLFTRIIVHAEKVNGKWVIRRFKMETR | 1.54 |
| DEEDEILERLFKLWIEEFLTGDWEAFHRYFDPRTRIHIGDKHHHGRTEYEKVAKHLNKRIDHVIIIIRRMEHQGDYIKVDTESRHKIDGVDISTHYILHHRIVDGKIHEIDVIYL | 0.647 |
